target: Phosphodiesterase 1 (Canis familiaris); assay: Inhibitory activity against phosphodiesterase 1 (PDE I), isolated from cardiac ventricle
Binary call on IC50 with cut-off 30 µM: strictly below means True, and equality or higher means False.

Completed entries (count: 3):
COC(=O)c1c(CN2CCN(CCO)CC2)cc2cc(OC)c(OC)cc2c1-c1cc(OC)c(OC)c(OC)c1 : True
COC(=O)c1c(C(=O)N(C)C)cc2cc(OC)c(OC)cc2c1-c1cc(OC)c(OC)c(OC)c1 : False
COC(=O)c1cc2cc(OC)c(OC)cc2c(-c2cc(OC)c(OC)c(OC)c2)c1C(=O)OC : False

input: Does the reported IC50 of "COC(=O)c1c(C(=O)N2CCC(O)CC2)cc2cc(OC)c(OC)cc2c1-c1cc(OC)c(OC)c(OC)c1" stay below 30 µM?
output: False

input: // repeat for "COC(=O)c1c(C(=O)N2CCN(CCO)CC2)cc2cc(OC)c(OC)cc2c1-c1cccc([N+](=O)[O-])c1" and report
output: False

input: Next entry: "COc1cc2cc3c(c(-c4cc(OC)c(OC)c(OC)c4)c2cc1OC)COC3=O"
output: True

input: Moving on to the next molecule: "CNC(=O)c1cc2cc(OC)c(OC)cc2c(-c2cc(OC)c(OC)c(OC)c2)c1C(=O)OC"
output: False

input: Now this one: "COC(=O)c1c(C(=O)N2CCN(CCO)CC2)cc2cc(OC)c(OC)cc2c1-c1cc(N)c(OC)c(OC)c1"
output: False

input: What do we get for "COC(=O)c1c(C(=O)N2CCN(CCO)CC2)cc2cc(OC)c(OC)cc2c1-c1cc(Cl)c(OC)c(OC)c1" ?
output: True

input: What would you report for "COC(=O)c1c(C(N)=O)cc2cc(OC)c(OC)cc2c1-c1cc(OC)c(OC)c(OC)c1" ?
output: True

input: Would you kindly repeat that for "COC(=O)c1c(C(=O)N2CCN(CCO)CC2)cc2ccccc2c1-c1cc(Br)c(OC)c(OC)c1" ?
output: True
